This section presents compounds with their documented melting point values.

# COMPOUND, PARAMETER_MEASURED, RECORDED_VALUE
records = [
    ("O=[N+]([O-])c1cc2c(c3c([N+](=O)[O-])cccc13)C(CCl)CN2 (configuration not stated)", "melting point", "130 to 131 °C"),
]

Q) Specify reported melting point for the compound shown: CNc1c(F)cc2c(=O)c(C(=O)O)cn(-c3ccc(F)c(N)c3)c2c1Cl
A) 162 to 166 °C

* * *

PARAMETER_MEASURED: melting point

Here is how some compounds turned out for melting point.
# COMPOUND, melting point
measured = [
    ("COC(=O)c1ncsc1S", "100 °C"),
    ("COc1ccc(OCC2SCCN2C(=O)CCl)cc1 (configuration not stated)", "51 to 53 °C"),
    ("CC(=O)Oc1ccc(-c2c(C)c3ccc(OC(C)=O)cc3oc2=O)c(OC(C)=O)c1", "145 °C"),
    ("O=[N+]([O-])c1ccc2nc(CCCCCCCCc3nc4ccc([N+](=O)[O-])cc4[nH]3)[nH]c2c1", "135 to 137 °C"),
    ("CCCOc1n[nH]c(=O)n1C1CC1", "105 to 106 °C"),
]

Q) Specify reported melting point for the compound shown: C[C@@H]1Cc2c(N3CCN(C)CC3)c(F)cc3c(=O)c(C(=O)O)cn1c23
A) 249 to 252 °C

Q) Specify reported melting point for the compound shown: O=C(Nc1ccnn1-c1c(Cl)cc(C(F)(F)F)c(Cl)c1Cl)C(F)(F)F
A) 140 to 145 °C

Q) Specify reported melting point for the compound shown: O=C(Nc1ccc(C(=O)N2Cc3ccccc3Cc3ccccc32)cc1)c1cccc(C(F)(F)F)c1
A) 190 to 191 °C

Q) Specify reported melting point for the compound shown: COC(=O)C(NC(=O)OCc1ccccc1)OC (configuration not stated)
A) 74 to 75 °C

Q) Specify reported melting point for the compound shown: CC(C)(C)c1ccc2c(Cl)c3ccccc3c(C=O)c2c1
A) 126 to 129 °C

Q) Specify reported melting point for the compound shown: CCCCNC(=O)Cc1cc(=O)oc2cc(OCc3cccc(Cl)c3)ccc12
A) 112 to 113 °C

Q) Specify reported melting point for the compound shown: N#CC(=C1Nc2ccccc2O1)S(=O)(=O)c1ccccc1
A) 215 to 218 °C

Q) Specify reported melting point for the compound shown: Cc1n[nH]c(=O)n1-c1ccc(OC(F)(F)C(F)F)cc1
A) 204 to 205 °C

Q) Specify reported melting point for the compound shown: CC(=O)NCCc1c(C(F)(F)F)nn2ccc3c(c12)CCO3
A) 196 to 198 °C

Each recorded value in this set is attributed to a melting point compilation (Tetko et al.; mined from patent text by program, amines drawn as free bases though some values may be those of a salt).
